Reference source: patent US10828315B2

- System: human urinary bladder cancer cell line SW780
- PROCEDURE_SUMMARY: Cytotoxicity assay (CellTiter-Glo, 72 h), SW780
- Assay type: cell-based
- ASSAY_CONTEXT: SW780, 72 h, read-out: Cytotoxicity (IC50, nM) SW-780
OBSERVATION_TYPE: IC50 (nM)

>>> numeric_readout("CC(C)c1cc(C(=O)N2Cc3ccc(NC(=O)CCCc4nc5cc(N(CCCl)CCCl)ccc5n4C)cc3C2)c(O)cc1O")
2340
>>> numeric_readout("COc1ccc(-c2cnoc2-c2cc(OC)c(OC)c(OC)c2)cc1OC(=O)N1CCN(Cc2ccc(-n3c(O)nnc3-c3cc(C(C)C)c(O)cc3O)cc2)CC1")
257
>>> numeric_readout("CC(C)c1cc(-c2nnc(O)n2-c2ccc(CN3CCN(C(=O)Oc4ccc(COC(=O)Nc5cccc6c5CN(C5CCC(=O)NC5=O)C6=O)cc4)CC3)c(F)c2)c(O)cc1O (stereo not shown)")
275
